Examples of compounds with documented IC50 follow.
# assayed system: Coagulation factor X (Homo sapiens, UniProt P00742)
# protocol summary: Inhibitory activity against Coagulation factor X
# Sequence (P00742 41-179 limits assumed): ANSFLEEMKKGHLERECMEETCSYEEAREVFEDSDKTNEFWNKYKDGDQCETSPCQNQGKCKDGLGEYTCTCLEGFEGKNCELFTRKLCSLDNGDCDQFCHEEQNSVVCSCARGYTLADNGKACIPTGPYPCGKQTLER
# Sequence (P00742 235-488 limits assumed): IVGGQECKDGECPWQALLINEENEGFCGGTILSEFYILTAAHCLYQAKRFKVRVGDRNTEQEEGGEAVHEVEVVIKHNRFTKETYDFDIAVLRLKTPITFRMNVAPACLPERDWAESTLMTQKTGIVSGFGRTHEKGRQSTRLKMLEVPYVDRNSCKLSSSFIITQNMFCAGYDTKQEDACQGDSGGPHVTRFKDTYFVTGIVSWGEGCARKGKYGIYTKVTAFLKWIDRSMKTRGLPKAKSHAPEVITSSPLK
# answer = value followed by unit

Please review the following examples before continuing.
Look at this compound and give its reported IC50. CN(CC(=O)N[C@@H](CC1CCCCC1)C(=O)C(=O)NCc1ccc2c(c1)OCO2)C(=O)[C@@H](CC/N=C(\N)N[N+](=O)[O-])NS(=O)(=O)Cc1ccccc1
46.4 nM

Look at this compound and give its reported IC50. CCOC(=O)CNC(=O)C(=O)[C@H](Cc1ccc(O)cc1)NC(=O)CN(C)C(=O)[C@@H](CCCN=C(N)N)NS(=O)(=O)Cc1ccccc1.O=C(O)C(F)(F)F
7.63 nM

Next:
Look at this compound and give its reported IC50. CN(CC(=O)N[C@H]1CCCC(C(=N)N)C1O)C(=O)[C@@H](CCCN=C(N)N)NS(=O)(=O)Cc1ccccc1 (stereo partly drawn)
0.86 nM

###

# assayed system: UniProt:P00742
# protocol summary: In vitro inhibitory activity against prothrombinase (PTase) complex
# Sequence (P00742 whole entry): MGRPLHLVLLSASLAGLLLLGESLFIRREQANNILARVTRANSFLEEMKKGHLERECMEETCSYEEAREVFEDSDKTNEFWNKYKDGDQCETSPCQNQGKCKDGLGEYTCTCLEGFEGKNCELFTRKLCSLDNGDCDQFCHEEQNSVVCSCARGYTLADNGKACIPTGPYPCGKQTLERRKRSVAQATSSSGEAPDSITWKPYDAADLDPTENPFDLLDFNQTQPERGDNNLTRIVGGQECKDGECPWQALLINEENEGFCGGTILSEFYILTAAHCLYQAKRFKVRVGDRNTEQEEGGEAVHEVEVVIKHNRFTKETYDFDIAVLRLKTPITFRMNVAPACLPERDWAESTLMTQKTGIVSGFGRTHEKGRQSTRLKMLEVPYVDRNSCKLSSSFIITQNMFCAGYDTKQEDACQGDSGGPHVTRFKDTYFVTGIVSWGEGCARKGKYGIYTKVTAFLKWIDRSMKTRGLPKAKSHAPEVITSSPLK
Examples of molecules with documented pIC50 follow.
The read-out pIC50 is expressed as -log10 of concentration in moles per litre.

Please review the following examples before continuing.
Look at this molecule and give its reported pIC50. CN(CC(=O)N[C@@H](Cc1ccccc1)C(=O)C(=O)NCC(=O)NCCc1ccccc1)C(=O)[C@@H](CCCN=C(N)N)NS(=O)(=O)Cc1ccccc1.O=C(O)C(F)(F)F
7.59

Look at this molecule and give its reported pIC50. CCOC(=O)CNC(=O)C(=O)[C@H](Cc1ccccc1)NC(=O)CN(C)C(=O)[C@@H](CCCN=C(N)N)NS(=O)(=O)Cc1ccccc1
7.60

Look at this molecule and give its reported pIC50. CN(CC(=O)N[C@H]1CCCC(C(=N)N)C1O)C(=O)[C@@H](CCCN=C(N)N)NS(=O)(=O)Cc1ccccc1 (some centres undefined)
8.47

Next:
Look at this molecule and give its reported pIC50. CCOC(=O)CNC(=O)C(=O)[C@H](Cc1ccc(O)cc1)NC(=O)CN(C)C(=O)[C@@H](CCCN=C(N)N)NS(=O)(=O)Cc1ccccc1.O=C(O)C(F)(F)F
7.53

###

# assayed system: Prothrombin (Homo sapiens)
# protocol summary: In vitro inhibitory activity against Thrombin (FIIa)
pIC50: −log10 of the molar value.
Examples of molecules with documented pIC50 follow.

Please review the following examples before continuing.
Which measured pIC50 belongs to CN(CC(=O)N[C@@H](Cc1ccccc1)C(=O)C(=O)NCC(=O)NCCc1ccccc1)C(=O)[C@@H](CCCN=C(N)N)NS(=O)(=O)Cc1ccccc1.O=C(O)C(F)(F)F , tested on Prothrombin (Homo sapiens)?
< 5.60

Which measured pIC50 belongs to CCCCCNC(=O)C(=O)[C@H](CC1CCCCC1)NC(=O)CN(C)C(=O)[C@@H](CCCN=C(N)N)NS(=O)(=O)Cc1ccccc1 , tested on Prothrombin (Homo sapiens)?
5.42

Which measured pIC50 belongs to CN(CC(=O)N[C@@H](CC1CCCCC1)C(=O)C(=O)NCc1ccccc1)C(=O)[C@@H](CCCN=C(N)N)NS(=O)(=O)Cc1ccccc1 , tested on Prothrombin (Homo sapiens)?
5.71

Which measured pIC50 belongs to CN(CC(=O)N[C@@H](CC1CCCCC1)C(=O)C(=O)NCCc1ccccc1)C(=O)[C@@H](CCCN=C(N)N)NS(=O)(=O)Cc1ccccc1 , tested on Prothrombin (Homo sapiens)?
5.66

Which measured pIC50 belongs to CN(CC(=O)N[C@@H](CC1CCCCC1)C(=O)C(=O)NCc1ccc2c(c1)OCO2)C(=O)[C@@H](CC/N=C(\N)N[N+](=O)[O-])NS(=O)(=O)Cc1ccccc1 , tested on Prothrombin (Homo sapiens)?
< 5.60

Next:
Which measured pIC50 belongs to CN(CC(=O)N[C@H]1CCCC(C(=N)N)C1O)C(=O)[C@@H](CCCN=C(N)N)NS(=O)(=O)Cc1ccccc1 (some centres undefined) , tested on Prothrombin (Homo sapiens)?
< 5.60

Which measured pIC50 belongs to CCOC(=O)CNC(=O)C(=O)[C@H](CC1CCCCC1)NC(=O)CN(C)C(=O)[C@@H](CCCN=C(N)N)NS(=O)(=O)Cc1ccccc1 , tested on Prothrombin (Homo sapiens)?
< 5.60

Which measured pIC50 belongs to CCOC(=O)CNC(=O)C(=O)[C@H](Cc1ccccc1)NC(=O)CN(C)C(=O)[C@@H](CCCN=C(N)N)NS(=O)(=O)Cc1ccccc1 , tested on Prothrombin (Homo sapiens)?
< 5.60

Which measured pIC50 belongs to CCOC(=O)CNC(=O)C(=O)[C@H](Cc1ccc(O)cc1)NC(=O)CN(C)C(=O)[C@@H](CCCN=C(N)N)NS(=O)(=O)Cc1ccccc1.O=C(O)C(F)(F)F , tested on Prothrombin (Homo sapiens)?
< 5.60
